This section lists pIC50 readings for UniProt P14780.
Sequence (P14780 107-446): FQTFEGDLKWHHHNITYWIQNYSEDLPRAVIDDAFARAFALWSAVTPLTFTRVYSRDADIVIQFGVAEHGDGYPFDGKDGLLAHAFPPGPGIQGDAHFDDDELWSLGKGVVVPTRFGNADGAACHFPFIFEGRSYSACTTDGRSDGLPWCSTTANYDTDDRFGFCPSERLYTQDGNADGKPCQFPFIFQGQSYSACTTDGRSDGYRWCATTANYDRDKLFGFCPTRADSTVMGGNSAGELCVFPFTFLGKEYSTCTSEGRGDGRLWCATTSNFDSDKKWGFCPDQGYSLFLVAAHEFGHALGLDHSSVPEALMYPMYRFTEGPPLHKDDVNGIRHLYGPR
Kindly note that pIC50 refers to -log10 of the concentration in mol/L and answer with the value alone.

Completed entries (count: 2):
smiles_structure=O=c1c(N(Cc2ccccc2)S(=O)(=O)c2ccc(Oc3ccccc3)cc2)cccn1O measurement_kind=pIC50 value_measured=7.48
smiles_structure=O=c1c(N(CCN2CCSCC2)S(=O)(=O)c2ccc(Oc3ccc(Cl)cc3)cc2)cccn1O measurement_kind=pIC50 value_measured=8.31

Switching to the query record.
Prompt: Give a short answer stating reported pIC50 for COc1ccc(-c2ccc(S(=O)(=O)Cn3cccc(O)c3=O)s2)cc1 .
Response: 6.28

====

biological target: MMP-2 (Homo sapiens, UniProt P08253); construct: Human MMP-2 full length (aa 1-660); test: MMP enzymatic assay (Trupoint peptide), MMP-2; assay type: biochemical; details: read-out: MMP-2 nM IC50
Sequence (P08253 30-660): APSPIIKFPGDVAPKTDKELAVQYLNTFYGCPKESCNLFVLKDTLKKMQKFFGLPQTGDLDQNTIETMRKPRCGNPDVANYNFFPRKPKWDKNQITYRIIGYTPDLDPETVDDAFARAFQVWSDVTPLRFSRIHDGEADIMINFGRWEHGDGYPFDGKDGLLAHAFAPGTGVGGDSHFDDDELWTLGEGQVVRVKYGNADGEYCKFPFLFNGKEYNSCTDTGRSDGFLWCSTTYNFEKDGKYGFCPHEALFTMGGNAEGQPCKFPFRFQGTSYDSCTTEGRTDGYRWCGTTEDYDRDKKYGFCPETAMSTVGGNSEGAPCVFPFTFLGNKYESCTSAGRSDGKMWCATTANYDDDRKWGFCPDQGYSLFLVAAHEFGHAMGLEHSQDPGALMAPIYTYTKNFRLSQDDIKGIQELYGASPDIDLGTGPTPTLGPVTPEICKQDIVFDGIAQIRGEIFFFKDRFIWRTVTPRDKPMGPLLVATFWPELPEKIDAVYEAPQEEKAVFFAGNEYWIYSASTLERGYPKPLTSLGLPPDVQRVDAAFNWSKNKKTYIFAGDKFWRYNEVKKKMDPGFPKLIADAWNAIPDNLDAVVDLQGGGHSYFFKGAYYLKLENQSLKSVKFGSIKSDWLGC
Friendly reminder: IC50 below 70 nM is Y, at or above is N.

Worked examples follow.
molecule="COc1ccc(Oc2ccc(S(=O)(=O)C3CCCN(O)C3=O)cc2)cc1 (centres unmarked)" target_under_test="MMP-2 (Homo sapiens, UniProt P08253)" cat=N
molecule=COc1ccc(Oc2ccc(S(=O)(=O)N(C)c3cccn(O)c3=O)cc2)cc1 target_under_test="MMP-2 (Homo sapiens, UniProt P08253)" cat=Y
molecule=Cc1ccn(O)c(=O)c1N(C)S(=O)(=O)c1ccc(Oc2ccc(Cl)cc2)cc1 target_under_test="MMP-2 (Homo sapiens, UniProt P08253)" cat=Y
molecule=O=c1c(NS(=O)(=O)c2ccc(Oc3ccc(Cl)cc3)cc2)cccn1O target_under_test="MMP-2 (Homo sapiens, UniProt P08253)" cat=N
molecule=O=C(CN(c1cccn(O)c1=O)S(=O)(=O)c1ccc(Oc2ccc(Cl)cc2)cc1)N1CCOCC1 target_under_test="MMP-2 (Homo sapiens, UniProt P08253)" cat=Y
molecule=CN(c1cc(Br)cn(O)c1=O)S(=O)(=O)c1ccc(Oc2ccc(Cl)cc2)cc1 target_under_test="MMP-2 (Homo sapiens, UniProt P08253)" cat=N
molecule=Cc1ccc(Oc2ccc(S(=O)(=O)Cn3cccc(O)c3=O)cc2)cc1 target_under_test="MMP-2 (Homo sapiens, UniProt P08253)" cat=Y
molecule="COc1ccc(Oc2ccc(S(=O)(=O)C3CCCCN(O)C3=O)cc2)cc1 (centres unmarked)" target_under_test="MMP-2 (Homo sapiens, UniProt P08253)" cat=N

Prompt: Decide: IC50 of CN(c1cccn(O)c1=O)S(=O)(=O)c1ccc(Oc2ccc(OC(F)(F)F)cc2)cc1 strictly below 70 nM?
Response: Y

Prompt: Decide: IC50 of CN1CCN(CCN(c2cccn(O)c2=O)S(=O)(=O)c2ccc(Oc3ccc(Cl)cc3)cc2)CC1 strictly below 70 nM?
Response: Y

Prompt: Decide: IC50 of COc1ccc(Oc2ccc(S(=O)(=O)Cc3cccn(O)c3=O)cc2)cc1 strictly below 70 nM?
Response: Y

Prompt: Decide: IC50 of COc1ccc(Oc2ccc(S(=O)(=O)Cn3cccc(O)c3=O)cc2)cc1 strictly below 70 nM?
Response: N

Prompt: Decide: IC50 of O=S(=O)(c1ccc(Oc2ccccc2)cc1)N(Cc1ccccc1)c1cccn(O)c1=S strictly below 70 nM?
Response: N

Prompt: Decide: IC50 of O=c1c(N(CCN2CCSCC2)S(=O)(=O)c2ccc(Oc3ccc(Cl)cc3)cc2)cccn1O strictly below 70 nM?
Response: Y

Prompt: Decide: IC50 of O=c1c(N(Cc2ccccc2)S(=O)(=O)c2ccc(Oc3ccccc3)cc2)cccn1O strictly below 70 nM?
Response: Y

Prompt: Decide: IC50 of O=c1c(N(CCN2CCOCC2)S(=O)(=O)c2ccc(Oc3ccc(Cl)cc3)cc2)cccn1O strictly below 70 nM?
Response: Y

Prompt: Decide: IC50 of Cc1ccc(N(C)S(=O)(=O)c2ccc(Oc3ccc(Cl)cc3)cc2)c(=O)n1O strictly below 70 nM?
Response: Y

Prompt: Decide: IC50 of O=C1C(S(=O)(=O)c2ccc(-c3nc4cc(F)ccc4[nH]3)cc2)CCCCN1O (centres unmarked) strictly below 70 nM?
Response: N

Prompt: Decide: IC50 of COc1ccc(-c2ccc(S(=O)(=O)Cn3cccc(O)c3=O)s2)cc1 strictly below 70 nM?
Response: N

Prompt: Decide: IC50 of Cc1ccc(S(=O)(=O)Cn2cccc(O)c2=O)cc1 strictly below 70 nM?
Response: N
